molecular target: WDR5 21-334, P61964

- Binder: "SARSTPLTVDRSPDSS [PDZRN4, Q6ZMN7]"
  selected by phage display: "confidence 2 (active)"
- Binder: "SARVNPQDGTNTLTRI [EHMT1, Q9H9B1]"
  selected by phage display: "confidence 2 (active)"
- Binder: "WEQDGGRWLPGHAMAM [RRAD, P55042]"
  selected by phage display: "confidence 2 (active)"
